All values here come from paper PMC5540273.

system: PYK2; construct: gene PTK2B; conditions: concentration: 1 μM, replicates: in singlicate; n = 1;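 also: KINOMEscan kinase panel screen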
measured.parameter: %Inh (%)

>>> data_value("Cl.Cl.NCC(NCc1ccc(-c2ccnc3[nH]ccc23)s1)c1ccccc1 (stereo not drawn)")
9
>>> data_value("COc1cccc(-c2ccc3c(NC(=O)C4CC4)n[nH]c3n2)c1")
6
>>> data_value("Cc1ccc(C(=O)N2CC[C@@H](O)C2)cc1-n1c(C)cc(OCc2ccc(F)cc2F)c(Br)c1=O")
2
>>> data_value("CNC(=O)c1ccccc1Nc1nc(Nc2ccc(N3CCOCC3)cc2)ncc1Cl.Cl")
99.7
>>> data_value("CCS(=O)(=O)c1ccc(OC)c(Nc2nccc(-c3c(-c4cccc(NC(=O)c5c(F)cccc5F)c4)nn4ncccc34)n2)c1")
12
>>> data_value("COc1cccc(C(=O)Nc2cccc(Oc3ccc4nc(NC(=O)C5CC5)cn4n3)c2)c1")
9
>>> data_value("COc1cc(Nc2nccc(N3CCC(NC(=O)Nc4cccc(C(C)=O)c4)C3)n2)cc(OC)c1OC (stereo not drawn)")
0
>>> data_value("CN(c1ccc(NC(=O)Nc2cc(C(F)(F)F)ccc2F)cc1)c1ccnc(Nc2ccc(S(N)(=O)=O)cc2)n1")
94.8
>>> data_value("COc1cc(Nc2nccc(N3CCC(NC(=O)c4cc5ccccc5s4)C3)n2)cc(OC)c1OC (stereo not drawn)")
0
>>> data_value("Nc1n[nH]c2cnc(-c3ccccc3)cc12")
5
>>> data_value("CN(C)Cc1ccc(-c2ccc3c(Nc4ccc(Oc5ccccn5)cc4)ccnc3c2)o1")
0
>>> data_value("COc1cccc(NC(=O)NC2CCN(c3ccnc(Nc4cc(OC)c(OC)c(OC)c4)n3)C2)c1 (stereo not drawn)")
4
>>> data_value("CCn1c(-c2nonc2N)nc2c(C#CC(C)(C)O)ncc(OCCCCN)c21.O=C(O)C(F)(F)F.O=C(O)C(F)(F)F")
0
>>> data_value("Cc1ccc(S(=O)(=O)Nc2ccc(Nc3nccc(Nc4cccc5[nH]ncc45)n3)cc2)cc1")
12
>>> data_value("C[C@@H]1CC[C@@H](C(=O)Nc2ccccc2)CN1c1cc(-c2ccc3c(N)n[nH]c3c2)nc(N)n1")
3
>>> data_value("Cn1cc(-c2ccc3c(c2)CCN3C(=O)Cc2cccc(F)c2)c2c(N)ncnc21")
0
>>> data_value("O=C(O)C(F)(F)F.O=C(O)C(F)(F)F.O=c1[nH]ccc2nc(N[C@@H]3CCCNC3)nc(Nc3ccc(S(=O)(=O)N4CCOCC4)cc3)c12")
98.9
>>> data_value("COC(=O)Nc1nc2ccc(Oc3ccc(NC(=O)Nc4cc(C(F)(F)F)ccc4F)cc3)cc2n1C.Cl")
0
>>> data_value("O=C(Nc1cccc(-c2nn3ccccc3c2-c2ccnc(Nc3cccc(F)c3)n2)c1)c1c(F)ccc(F)c1Cl")
0
>>> data_value("O=C(NC1CCN(c2ccnc(Nc3ccc(F)cc3)n2)C1)c1cc2ccccc2s1 (stereo not drawn)")
15
>>> data_value("Cl.Cl.NCC(C(=O)Nc1cc(Br)c(-c2ccnc3[nH]ccc23)s1)c1ccccc1 (stereo not drawn)")
2
>>> data_value("COc1cc2c(cc1OCCN1CCNCC1)ncc1c3ccc(C#N)cc3[nH]c21")
0
>>> data_value("COc1ccc(Nc2nccc(N3CCC(NC(=O)Nc4cccc(OC)c4)C3)n2)cc1 (stereo not drawn)")
5
>>> data_value("Cc1cccc(Nc2nc(N[C@H]3CCNC3)ncc2C(N)=O)c1.Cl")
49
>>> data_value("O=C(Nc1n[nH]c2cc(-c3ccoc3)ccc12)C1CC1")
9
>>> data_value("CN(C)S(=O)(=O)c1cc(-c2ccc3nccc(-c4cccc(S(N)(=O)=O)c4)c3c2)cnc1N")
6
>>> data_value("COc1ccc(Nc2nccc(NCCNC(=O)c3cc4ccccc4s3)n2)cc1")
0
>>> data_value("O=C(Nc1ccccc1F)NC1CCN(c2ccnc(Nc3ccc(F)cc3)n2)CC1")
0
>>> data_value("Cc1ccc(C)c(NC(=O)NC2CCN(c3ccnc(Nc4ccc(F)cc4)n3)C2)c1 (stereo not drawn)")
19
>>> data_value("c1ccc(-c2n[nH]cc2Nc2ccnc3ccccc23)nc1")
0
>>> data_value("CC(C)(C)c1ccc2nccc(Nc3cccc(O)c3)c2c1")
0
>>> data_value("O=c1[nH]cc(-c2ccc(N3CCOCC3)cc2)c2sc(-c3cn[nH]c3)cc12")
0
>>> data_value("C[C@@H](Oc1cc(-n2cnc3cc(-c4ccnc(NCCS(C)(=O)=O)c4)ccc32)sc1C(N)=O)c1ccccc1Cl")
24
